B1: TPR t1 (parent)
chain: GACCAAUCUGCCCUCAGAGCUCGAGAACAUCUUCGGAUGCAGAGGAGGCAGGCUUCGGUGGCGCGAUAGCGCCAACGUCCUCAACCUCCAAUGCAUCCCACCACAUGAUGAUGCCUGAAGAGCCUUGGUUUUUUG

Variants of: B1
Experiment: polymerase ribozyme fitness, log enrichment relative to wild type (log ratio); higher = more active; in vitro selection for triplet polymerase activity

>  <RESIDUE_SEQUENCE>
GACCAAUCUGCCCGCAGAGCUCGAGAACAUCUUCGGAUGCAGAGGAGGCAGGCUUCGGUAGCGCGAUAGCGCCAACGUCCUCAACCUCCAAUGCAUCCCACCACAUGAUGAUGCCUUAAGAGCCUUGGUUUUUUG [U14G G60A G117U]

>  <polymerase ribozyme fitness (log ratio)>
-5.67

$$$$
>  <RESIDUE_SEQUENCE>
GACCAAUCUGCCCUCAGAGCUCGAGUACAUCUUCGGAUGCAGAGGAGGUAGGCUUCGGUGGCGCGAUAGCGCCAACGUCCUCAACCUCCAAUGCAUCCCACCACAUGAUGAUGCCUGAAGAGCCUUGGUUUUUUG [A26U C49U]

>  <polymerase ribozyme fitness (log ratio)>
-3.62

$$$$
>  <RESIDUE_SEQUENCE>
GACCAAUCUGCCCUCAGAGCUCGAGAACAUCUUCGGAUGCAGAGGAGGCAGGCUUCGGUGGCGCGAUAGAGCCAACGUCAUCAACCUCCAAUGCAUCCCACCACAUGAUGAUGCCUGAAGAGCCUCGGUUUUUUG [C70A C80A U126C]

>  <polymerase ribozyme fitness (log ratio)>
-5.37

$$$$
>  <RESIDUE_SEQUENCE>
GACCAAUCUGCCCUCAGAGCUCGAGAACAUCUUCGGAUGCAGAGUAGGCAGGCUUCGGUGGCGCGAUAGCGCCAACGUCCUCAACCUCCAAUGCAUCCCACCACAAGAUGAUGCCUGAAGAGCCUUGGUUUUUUG [G45U U106A]

>  <polymerase ribozyme fitness (log ratio)>
-1.76

$$$$
>  <RESIDUE_SEQUENCE>
GACCAAUCUGCCCUCAGAGCUCGAGAACAUCUUCGGAUGCAGAGGAGGCAGGCUUAGGUGGCGCGAUAGCACCAACGUCCUCAACAUCCAAUGCAUCCCACCAAAUGAUGAUGCCUGAAGAGCCUUGGUUUUUUG [C56A G71A C86A C104A]

>  <polymerase ribozyme fitness (log ratio)>
-6.75

$$$$
>  <RESIDUE_SEQUENCE>
GACCAAUCUGCCCUCAGAGCUCGAGAACAUCUUCGGAUGCAGAGGAGGCAGGCUUGGGUGGCGCGAUAGCGCCAACGUCCUCAACCUCCAAUGCAUCCCACCACAUGAUAAUGCCGGAAGAGCCUUGGUUUUUUG [C56G G110A U116G]

>  <polymerase ribozyme fitness (log ratio)>
-3.62

$$$$
>  <RESIDUE_SEQUENCE>
GACCAAUCUGCCCUCAGAGCUCGAGAACAUCUUCGGCUGCAGAGGAGGCAGGCGUCAGUGGCGCGAUAGCGCCAACGUCCUCAACCUCCAAUGCAUCCCACCACAUGAUGAUGCCUGAAGAGCCUUGGUUUUUUG [A37C U54G G57A]

>  <polymerase ribozyme fitness (log ratio)>
-1.35

$$$$
>  <RESIDUE_SEQUENCE>
GACCAAUCUGCCCUCAGAGCUCGAGAACAUCUUCGGAUGCAGAGGAGGCAGGCUUCGGAAGCGCGAUAGCGCCAACGUCCUCAACCUCCAAUGCAUCCCACCACAUGAUGAUGCCUGAAGAGCCUUGGUUUUUUG [U59A G60A]

>  <polymerase ribozyme fitness (log ratio)>
0.122

$$$$
>  <RESIDUE_SEQUENCE>
GACCAAUCUGCCCUCAGAGCUCGAGAACAUCUUCGGAUGCAGAGGAGGCAGGCUUCGGUGGCGCGAUAGCGCCAACGUCCUCAACCUCCAAUGCAUCCCAGCACAUGAUGAUGCCUGAAGUGCCUUGGUUUUUUG [C101G A121U]

>  <polymerase ribozyme fitness (log ratio)>
-0.28

$$$$
>  <RESIDUE_SEQUENCE>
GACCAAUCUGCCCUCAGAGCUCGAGAACAUCUUCGGAUGCAGAGGAGGCAGACUUCGGUGGCGCGAUAGCGCUAACGUCCUUAACCUCCAAUGCAUCCCACCACAUGAUGAUGCCUGAAGAGCCUUGGUUUUUUG [G52A C73U C82U]

>  <polymerase ribozyme fitness (log ratio)>
-0.555

$$$$
>  <RESIDUE_SEQUENCE>
GACCAAUCUGCCCUCAGAGCCCGAGAACAUCUUCGGAUGCAGAGGAGGCAGGCUUAGAUGGCGCGAUAGCGCCAACGUCCUCAACCUCCAAUGCAUCCCACCACAUGAUGAUCCCUGAAGAGCCUUGGUUUAUUG [U21C C56A G58A G113C U132A]

>  <polymerase ribozyme fitness (log ratio)>
-2.29

$$$$
